Molecular target: Prostaglandin G/H synthase 2 (Homo sapiens)
Sequence (P35354 whole entry): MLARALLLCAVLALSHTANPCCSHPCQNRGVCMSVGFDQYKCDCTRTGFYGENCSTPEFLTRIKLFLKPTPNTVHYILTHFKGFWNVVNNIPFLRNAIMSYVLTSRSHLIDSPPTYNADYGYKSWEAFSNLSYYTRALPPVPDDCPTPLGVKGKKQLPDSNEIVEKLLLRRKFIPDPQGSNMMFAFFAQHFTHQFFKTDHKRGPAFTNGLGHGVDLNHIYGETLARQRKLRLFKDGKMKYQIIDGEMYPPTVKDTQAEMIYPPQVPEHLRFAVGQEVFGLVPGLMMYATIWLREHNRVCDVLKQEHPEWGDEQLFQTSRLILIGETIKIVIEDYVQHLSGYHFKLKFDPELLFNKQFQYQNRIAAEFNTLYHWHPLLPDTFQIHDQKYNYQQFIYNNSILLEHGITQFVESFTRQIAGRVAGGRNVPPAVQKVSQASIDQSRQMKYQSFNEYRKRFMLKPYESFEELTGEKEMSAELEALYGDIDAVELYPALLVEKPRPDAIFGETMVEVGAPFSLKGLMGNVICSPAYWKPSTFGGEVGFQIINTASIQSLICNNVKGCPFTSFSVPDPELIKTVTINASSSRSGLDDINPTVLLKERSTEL
Collected set of IC50 measured with Prostaglandin G/H synthase 2 (Homo sapiens) across studies.
API: value field is a number in nM; no unit string.

Observe how each entry below is paired with its result.
INSERT INTO measurements (compound, test_value) VALUES
  ('CCOc1cccc(-c2ccc(C(C)C(=O)O)cc2F)c1 (stereo unspecified)', 14),
  ('CCc1nc(C2CCCCC2)c(-c2ccc(S(C)(=O)=O)cc2)o1', 270),
  ('CC(=O)OCO/N=[N+](\[O-])N1CCC[C@H]1COC(=O)c1ccccc1OC(C)=O', 2200),
  ('COc1ccc2c(c1)c(Cc1nc(-c3ccc([N+](=O)[O-])cc3)cs1)c(C)n2C(=O)c1ccc(Br)cc1', 7),
  ('CS(=O)(=O)c1ccc(-c2ccccc2-c2ccccc2)cc1', 11000),
  ('Clc1ccccc1-c1csc(Nc2ccc3c(c2)OCO3)n1', 910),
  ('COc1ccc(/C=C/c2cc(OC)cc(OC)c2/C=C/C(=O)NC2CC2)cc1', 13000),
  ('C=Cc1cncc(-c2ccc(C(C)C(=O)O)cc2)c1 (stereo unspecified)', 190),
  ('Cc1ccc(C2=NN(C3=NC(=O)CS3)C(c3ccccc3)C2)cc1C (stereo unspecified)', 500),
  ('COc1ccc2c(c1)c(CC(=O)N[C@H](CO)CC(C)C)c(C)n2C(=O)c1ccc(Cl)cc1', 170);

Q: GET /values?readout=IC50&item= CS(=O)(=O)c1ccc(C=C(c2ccc(Cl)cc2)c2ccc(Cl)cc2)cc1
Result: 2000

Q: Would you kindly share the measured IC50 for CC1=NNC(=O)/C1=N/Nc1cccc(-c2nc3ccccc3s2)c1 ?
Result: 100

Q: Entry O=C(COc1cc(O)c2c(=O)cc(-c3ccccc3)oc2c1)OCc1cc(-c2ccccc2)n(-c2ccccc2)n1 : reported IC50 = ?
Result: 2200

Q: Fill blank: measured IC50 of the compound CS(=O)(=O)c1ccc(-c2ccsc2-c2ccc(O)cc2)cc1 is ____.
Result: 86000

Q: // returns reported IC50 for input COc1ccc2c(c1)c(Cc1nc(-c3ccc(C(=O)O)cc3)cs1)c(C)n2C(=O)c1ccc(Cl)cc1
Result: 120

Q: I would be grateful if you could share the reported IC50 for Cc1ccc2oc(=O)cc(CSc3nnc(CSc4nc5ccccc5o4)o3)c2c1 .
Result: 45600
